# assay notes: in vivo
# test conditions: mouse, iv
Decide using LD50 at 192 h alone. Strictly below 40 mg/kg: satisfied. Equal to or above 40 mg/kg: not satisfied.

COc1ccc(C(C)(COCc2ccc(Cl)cc2)N(C)C)cc1 (stereo not drawn) [Example 13]	not satisfied
CCC(COc1ccc(OC)cc1)(c1ccccc1)N(C)C (stereo not drawn) [Example 21]	not satisfied
CCCCCCCCCCOCC(CC)(c1ccccc1)N(C)C (stereo not drawn) [Example 5]	satisfied
CCCCOCC(CC)(c1ccccc1)N(C)C (stereo not drawn) [Example 4]	satisfied
CCC(COCc1cccnc1)(c1ccccc1)N(C)C (stereo not drawn) [Example 10]	not satisfied
CCC(COCc1ccc(OC)c(OC)c1)(c1ccccc1)N(C)C (stereo not drawn) [Example 1]	satisfied
CCC(COCc1ccccc1)(c1ccccc1)N(C)C (stereo not drawn) [Example 3]	not satisfied
CCC(COCc1cc(OC)c(OC)c(OC)c1)(NC)c1ccccc1 (stereo not drawn) [Example 12]	satisfied
CCC(COCc1ccc(C)cc1)(c1ccccc1)N(C)C (stereo not drawn) [Example 6]	not satisfied
CCC(COCc1cc(OC)c(OC)c(OC)c1)(c1ccccc1)N(C)C (stereo not drawn) [Example 2]	not satisfied
COc1ccc(CC(C)(N)COCc2ccccc2)cc1OC (stereo not drawn) [Example 17]	not satisfied
COc1ccc(CCC(C)(COCc2cc(OC)c(OC)c(OC)c2)N(C)C)cc1OC (stereo not drawn) [Example 19]	satisfied
CCC(COc1ccccn1)(c1ccccc1)N(C)C (stereo not drawn) [Example 7]	satisfied
Cc1ccc(COCC(C)(c2ccc(Cl)c(Cl)c2)N(C)C)cc1 (stereo not drawn) [Example 15]	not satisfied
CCC(CN(C)C)(Oc1ccc(OC)cc1)c1ccccc1 (stereo not drawn) [Example 22]	not satisfied
COc1ccc(CC(C)(COCc2ccccc2)N(C)C)cc1OC (stereo not drawn) [Example 18]	satisfied
CCC(CN(C)C)(OCc1cc(OC)c(OC)c(OC)c1)c1ccccc1 (stereo not drawn) [Example 11]	not satisfied

====

# Tested on: cornea of the rabbit
# assay notes: Local anaesthetic activity on contact, rabbit cornea (derived from Regnier)
# Format: in vivo, rabbit (male albino)
# test conditions: relative index I from activity and relative toxicity, calculated in mmoles
parameter measured: local anaesthesia/lidocaine hydrochloride index

CCC(COCc1cc(OC)c(OC)c(OC)c1)(c1ccccc1)N(C)C (centres unmarked) [Example 2]	2.95
COc1ccc(CCC(C)(COCc2cc(OC)c(OC)c(OC)c2)N(C)C)cc1OC (centres unmarked) [Example 19]	0.92
CCC(COCc1ccc(OC)c(OC)c1)(c1ccccc1)N(C)C (centres unmarked) [Example 1]	1.52
CCC(COc1ccc(OC)cc1)(c1ccccc1)N(C)C (centres unmarked) [Example 21]	2.00
COc1ccc(C(C)(COCc2ccc(Cl)cc2)N(C)C)cc1 (centres unmarked) [Example 13]	1.71

====

# System: cornea of the rabbit
# assay notes: Local anaesthetic activity on contact, rabbit cornea (derived from Regnier)
# Assay type: in vivo, rabbit (male albino)
# test conditions: relative index I from activity and relative toxicity, calculated in mmoles
local anaesthesia/lidocaine hydrochloride index by entry:
parameter measured: local anaesthesia/lidocaine hydrochloride index

CCC(COCc1cc(OC)c(OC)c(OC)c1)(NC)c1ccccc1 (centres unmarked)	1.84
CCC(COCc1ccccn1)(c1ccccc1)N(C)C (centres unmarked)	0.875
CCC(COCc1ccccc1)(c1ccccc1)N(C)C (centres unmarked)	1.85
CCC(COc1ccccn1)(c1ccccc1)N(C)C (centres unmarked)	1.30
CCC(CN(C)C)(OCc1cc(OC)c(OC)c(OC)c1)c1ccccc1 (centres unmarked)	1.49

// data source = patent US4301163A
